MEASUREMENT_TARGET: T1, dimeric human PRLR (hPRLR.mFc; SEQ ID NO:402) (Homo sapiens, UniProt P16471)
T1 construct: dimeric (hPRLR.mFc)
T1 sequence (P16471 with tags, fused parts or gaps): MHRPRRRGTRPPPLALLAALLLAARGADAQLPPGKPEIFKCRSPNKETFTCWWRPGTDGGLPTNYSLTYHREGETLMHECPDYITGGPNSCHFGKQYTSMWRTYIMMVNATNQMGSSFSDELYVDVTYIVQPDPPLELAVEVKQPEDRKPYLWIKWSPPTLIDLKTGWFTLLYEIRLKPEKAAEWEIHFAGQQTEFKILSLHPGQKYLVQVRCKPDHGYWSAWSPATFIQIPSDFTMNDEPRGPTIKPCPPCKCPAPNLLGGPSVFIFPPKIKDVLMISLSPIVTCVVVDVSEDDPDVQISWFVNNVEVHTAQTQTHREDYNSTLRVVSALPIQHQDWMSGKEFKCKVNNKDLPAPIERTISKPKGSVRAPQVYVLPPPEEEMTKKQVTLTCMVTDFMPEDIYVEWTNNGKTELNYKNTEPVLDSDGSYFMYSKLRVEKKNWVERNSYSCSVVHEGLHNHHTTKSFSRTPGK
PROTOCOL_NOTES: Surface plasmon resonance (Biacore T200), antibody-capture format
Format: binding
REPORTED_CONDITIONS: 25° C., analyte hPRLR.mFc
VALUE_KIND: kd

molecule="H1H6801P: fully human anti-PRLR antibody, human IgG1 Fc; HCVR/LCVR SEQ ID NOs 210/218 (antibody, V domains shown) VH: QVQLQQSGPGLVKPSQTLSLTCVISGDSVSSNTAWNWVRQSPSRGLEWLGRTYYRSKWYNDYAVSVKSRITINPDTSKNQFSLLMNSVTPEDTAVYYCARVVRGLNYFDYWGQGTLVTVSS VL: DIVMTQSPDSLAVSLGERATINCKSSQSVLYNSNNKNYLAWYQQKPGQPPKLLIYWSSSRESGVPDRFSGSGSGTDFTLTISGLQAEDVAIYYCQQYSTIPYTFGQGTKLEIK" value_kind=kd assay_value="0.000109 s⁻¹"
molecule="H1H6774P: fully human anti-PRLR antibody, human IgG1 Fc; HCVR/LCVR SEQ ID NOs 34/42 (antibody, V domains shown) VH: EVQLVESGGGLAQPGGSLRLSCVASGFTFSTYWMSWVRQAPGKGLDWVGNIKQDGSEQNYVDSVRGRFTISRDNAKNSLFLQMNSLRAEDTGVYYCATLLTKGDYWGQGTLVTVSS VL: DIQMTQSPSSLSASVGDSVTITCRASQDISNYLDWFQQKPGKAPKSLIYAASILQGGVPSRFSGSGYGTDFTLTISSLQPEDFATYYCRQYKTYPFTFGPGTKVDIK" value_kind=kd assay_value="8.94e-05 s⁻¹"

Just for reference, patent US10925971B2 is where these values come from.
